All figures here come from paper PMC9307851.

Molecular target: DNMT3B MTase domain R670Q (human, UniProt Q9UBC3 569-853, R670Q)
Test: ITC; 5 C; N fixed at 0.5; ITC: 20 mM Tris-HCl pH 7.2, 200 mM NaCl, 5% glycerol, 2 mM b-mercaptoethanol, 5 C; EMSA: 50 mM Tris-HCl pH 8.0, 25% glycerol, 8% glucose, 2 mM DTT, 0.1 mg/mL BSA, 30 min, gel in 0.5x TBE at 4 C
Conditions: protein: recombinant; tags: His6-MBP removed by TEV; (only upper strand given)
readout: Kd

>  <binder>
24-mer DNA duplex (GAC)8 (dsDNA) DNA 1: GACGACGACGACGACGACGACGAC DNA 2: GTCGTCGTCGTCGTCGTCGTCGTC

>  <reported-result>
24.4 µM

$$$$
